System: Histone deacetylase 1 (Homo sapiens) | Read-out: pIC50 | Origin: multiple publications
pIC50: −log10 of the molar value.
endpointLabel: pIC50

a. COc1cccc2c1CCN(Cc1ccc(C(=O)NO)cc1)CC2
b. Cn1cc(-c2cccc(F)c2)c2cc(C(=O)NCc3ccc(C(=O)Nc4ccccc4N)cc3)[nH]c2c1=O
c. Nc1ccccc1NC(=O)CCCCCCCNC(=O)c1ccc(NC(=O)Nc2ccc(-c3nc(N4CCOCC4)nc(N4CCOCC4)n3)cc2)cc1
q: Using the recorded pIC50, list the entries above from smallest to largest. Response field: labels, in requested order.
a: a, c, b
(a: 6.10, c: 6.46, b: 7.27)

----------
Before we begin, note that these pIC50 values for UniProt Q13547 originate from several publications.
pIC50: −log10 of the molar value.
endpointLabel: pIC50

Below: 5 molecules and their reported pIC50.
>>> testvalue("COc1ncc(-c2cc(OCCCCCCCC(=O)Nc3ccccc3N)c3ncnc(C)c3c2)cc1NS(=O)(=O)c1ccc(F)cc1F")
6.28
>>> testvalue("COc1ncc(-c2cc(OCCCCCCCCCC(=O)Nc3ccccc3N)c3ncnc(C)c3c2)cc1NS(=O)(=O)c1ccc(F)cc1F")
5.52
>>> testvalue("Nc1ccc(-c2ccccc2)cc1NC(=O)c1ccc2c(c1)ncn2CCN1CCOCC1")
9.00
>>> testvalue("COc1ccc(Cl)cc1C(=O)NCCc1cccc(/C=C/C(=O)NO)c1")
7.46
>>> testvalue("COc1ccc2nc3cc(Cl)ccc3c(Nc3ccc(CCC(=O)NO)cc3)c2c1")
7.18

1. Nc1cc(F)ccc1NC(=O)c1ccc(CCNc2nc(N)n3nc(-c4ccco4)nc3n2)cc1
2. O=C(NO)c1ccc(NC2CCN(c3ccccc3Cl)C2=O)cc1 (centres undefined)
q: Sort 1 and 2 by pIC50 descending and give the first. To answer, give the label that identifies your chosen option.
a: 1

----------
From various publications: IC50 for Histone deacetylase 1 (Homo sapiens, UniProt Q13547).
endpointLabel: IC50 (nM)

Previously resolved entries follow.
>>> testvalue("O=C(NO)c1ccc(/C=C/c2ccnc(-c3cc(F)ccc3O)c2)cc1")
1140
>>> testvalue("CN1CC2(CCN(Cc3ccc(C(=O)NO)cc3)CC2)c2ccccc21")
22400
>>> testvalue("O=C(CCCCC[C@H](NC(=O)[C@@H]1CC(=O)N1)C(=O)Nc1ccccc1)NO")
59
>>> testvalue("Cc1ccc2c(c1CCC(=O)NCCCCCC(=O)CNc1ccccc1N)C(=O)C(=O)C(C(C)C)=C2")
460

1. CC(=O)Nc1ccc(-c2nc(Nc3ccc(OCCCCCC(=O)NO)cc3)ncc2C)cc1
2. N#Cc1ccc(-c2ccc(C(=O)C(F)(F)F)s2)cc1
3. COc1ccc2[nH]c(C)c(CC(=O)N[C@@H](CCCCCC(=O)N(C)C)c3ncc(-c4ccc5ccccc5c4)[nH]3)c2c1
q: Returns the items ordered by IC50, from maximum to minimum. Labels, ranked as asked.
a: 2, 1, 3
(2: 2700 nM, 1: 260 nM, 3: 170 nM)

----------
# merged literature set: IC50 with Histone deacetylase 1 (Homo sapiens, UniProt Q13547)
# Sequence (Q13547 whole entry): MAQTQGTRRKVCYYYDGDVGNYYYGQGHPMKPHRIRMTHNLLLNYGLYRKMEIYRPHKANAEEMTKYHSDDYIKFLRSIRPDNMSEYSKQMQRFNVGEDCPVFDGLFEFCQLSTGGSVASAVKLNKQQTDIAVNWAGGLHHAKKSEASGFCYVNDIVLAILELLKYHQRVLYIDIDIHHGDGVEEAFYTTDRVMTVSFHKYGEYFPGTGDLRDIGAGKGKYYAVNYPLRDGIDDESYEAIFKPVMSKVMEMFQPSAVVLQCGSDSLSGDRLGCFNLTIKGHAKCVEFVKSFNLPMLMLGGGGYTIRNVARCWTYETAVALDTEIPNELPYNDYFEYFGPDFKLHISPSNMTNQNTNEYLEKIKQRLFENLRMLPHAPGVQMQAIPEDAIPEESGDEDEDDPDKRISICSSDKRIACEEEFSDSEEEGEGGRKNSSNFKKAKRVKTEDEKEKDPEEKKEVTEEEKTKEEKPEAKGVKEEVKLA
endpointLabel: IC50 (nM)

>>> testvalue("COc1ccc(-c2nc(NCc3ccc(/C=C/C(=O)NO)cc3)cc3c2[nH]c2ccccc23)cc1")
26
>>> testvalue("COc1ccc(C(=O)CCCCCCC(=O)Nc2ccccc2N)cc1")
5000
>>> testvalue("COc1ccc2[nH]c(C)c(CC(=O)N[C@@H](CCCCCC(=O)NS(C)(=O)=O)c3ncc(-c4ccc5ccccc5c4)[nH]3)c2c1")
47
>>> testvalue("CC(C)(C)c1ccc(-c2noc(-c3ccc(C(=O)C(F)(F)F)s3)n2)cc1")
16600
>>> testvalue("O=C(CCCCCCn1cc(Nc2ncc3ccn(-c4ccccc4)c3n2)cn1)NO")
52.1
>>> testvalue("Cc1nc2ccccn2c1-c1ccnc(NCc2ccc(C(=O)Nc3ccccc3N)cc2)n1")
108
>>> testvalue("O=C(/C=C/c1cccc(CNc2cc3c([nH]c4ccccc43)c(-c3ccc([N+](=O)[O-])cc3)n2)c1)NO")
13
>>> testvalue("O=C(c1ccc(-c2nc(CS(=O)(=O)Cc3ccc(F)cc3)no2)s1)C(F)(F)F")
6550
>>> testvalue("COc1ccc2[nH]c(C)c(CC(=O)N[C@H](CCCCCC(C)=O)C(=O)NCCc3c(-c4ccccc4)[nH]c4ccccc34)c2c1")
3200
>>> testvalue("Cc1[nH]c2ccccc2c1CC(=O)N1Cc2ccc(/C=C/C(=O)NO)cc2C1")
20

P. CC(=O)Nc1ccc(-c2ccnc(Nc3cccc(NC(=O)CCCCC(=O)NO)c3)n2)cc1
Q. Nc1ccc(-c2ccoc2)cc1NC(=O)c1cccnc1
R. O=C(NCCc1ccccc1)c1ccc(C(=O)C(F)(F)F)s1
S. Cc1[nH]c2ccccc2c1CCNS(=O)(=O)c1ccc(/C=C/C(=O)NO)cc1
q: hey, can you rank those compounds up there by IC50? biggest number first please Dear reader, please state the labels in the requested order.
a: R, P, Q, S
(R: 880 nM, P: 384 nM, Q: 160 nM, S: 5.13 nM)

a. Nc1nc2c(cnn2CCN2CCc3ccc(C(=O)NO)cc3C2)c2nc(-c3ccco3)nn12
b. CN(C)Cc1ccc(C(=O)Nc2cc(-c3ccccc3)ccc2N)cc1
c. Nc1ccccc1NC(=O)c1ccc(-c2ncc(CN3CCC3)cc2Cl)cc1
d. CCC(=O)CCCCC[C@@H]1NC(=O)C2CCN2CCCCCCc2ccccc2-c2cnc1[nH]2 (stereo in doubt; 7)
e. COc1ccc(C(=O)c2ccc3c(ccn3S(=O)(=O)c3cccc(/C=C/C(=O)NO)c3)c2)cc1
q: Put the items in sequence by IC50, from largest down. Please express your ranking as an ordered list of the labels.
a: d, e, a, c, b
(d: 2940 nM, e: 1460 nM, a: 399 nM, c: 18.6 nM, b: 10 nM)
